System: Candida parapsilosis
method-notes: Antifungal activity against Candida parapsilosis assessed as turbidity after 24 hrs by serial dilution method
Format: functional
setup-conditions: Lodderomyces parapsilosis
parameter: MIC80

Bench note: what MIC80 did CN(CCCCOc1ccccc1)CC(O)(Cn1cncn1)c1ccc(F)cc1F (configuration not stated) show?
0.15 µM

Bench note: what MIC80 did OC(CN1CCC(OCc2ccc(F)cc2)CC1)(Cn1cncn1)c1ccc(F)cc1F (configuration not stated) show?
0.03 µM

Bench note: what MIC80 did N#Cc1ccc(COC2CCN(CC(O)(Cn3cncn3)c3ccc(F)cc3F)CC2)cc1 (configuration not stated) show?
0.01 µM

Bench note: what MIC80 did OC(CN1CCC(OCc2ccc(Cl)cc2Cl)CC1)(Cn1cncn1)c1ccc(F)cc1F (configuration not stated) show?
0.03 µM

Bench note: what MIC80 did OC(CN1CCC(OCc2ccccc2)CC1)(Cn1cncn1)c1ccc(F)cc1F (configuration not stated) show?
0.04 µM

Bench note: what MIC80 did CN(CC(O)(Cn1cncn1)c1ccc(F)cc1F)C1CCN(Cc2ccccc2)CC1 (configuration not stated) show?
0.57 µM

Bench note: what MIC80 did OC(CN1CCC(OCc2cccc(Br)c2)CC1)(Cn1cncn1)c1ccc(F)cc1F (configuration not stated) show?
0.12 µM

Bench note: what MIC80 did OC(CN1CCC(OCc2ccccc2Cl)CC1)(Cn1cncn1)c1ccc(F)cc1F (configuration not stated) show?
0.03 µM

Bench note: what MIC80 did OC(CN1CCC(OCc2ccc(Cl)c(Cl)c2)CC1)(Cn1cncn1)c1ccc(F)cc1F (configuration not stated) show?
0.03 µM

Bench note: what MIC80 did OC(CN1CCC(OCc2ccccc2F)CC1)(Cn1cncn1)c1ccc(F)cc1F (configuration not stated) show?
0.03 µM

Bench note: what MIC80 did OC(CN1CCC(OCc2cccc(Cl)c2)CC1)(Cn1cncn1)c1ccc(F)cc1F (configuration not stated) show?
0.03 µM

Bench note: what MIC80 did OC(Cn1cncn1)(Cn1cncn1)c1ccc(F)cc1F [FLUCONAZOLE] show?
0.82 µM
